Test: Maximum tolerated dose in tumor-bearing athymic nude mice
Conditions: athymic nude, mouse, in vivo, intravenous; mice with DU-145 prostate tumors
endpoint: MTD at 78 day

Data request, read-out MTD at 78 day, for CC(=O)O[C@@]12CO[C@@H]1C[C@H](O)[C@@]1(C)C(=O)[C@H](O)C3=C(C)[C@@H](OC(=O)[C@H](O)[C@@H](NC(=O)OC(C)(C)C)c4ccccc4)C[C@@](O)([C@@H](OC(=O)c4ccccc4)[C@H]21)C3(C)C [docetaxel, Docetaxel]
≤ 30 mg/kg
